Molecular target: Human tyrosinase (Homo sapiens)
Construct: endogenous in cells; host or cells: normal human melanocytes (abdominal surgery; several donors of fair, brown and black phototypes)
Sequence (P14679 19-529): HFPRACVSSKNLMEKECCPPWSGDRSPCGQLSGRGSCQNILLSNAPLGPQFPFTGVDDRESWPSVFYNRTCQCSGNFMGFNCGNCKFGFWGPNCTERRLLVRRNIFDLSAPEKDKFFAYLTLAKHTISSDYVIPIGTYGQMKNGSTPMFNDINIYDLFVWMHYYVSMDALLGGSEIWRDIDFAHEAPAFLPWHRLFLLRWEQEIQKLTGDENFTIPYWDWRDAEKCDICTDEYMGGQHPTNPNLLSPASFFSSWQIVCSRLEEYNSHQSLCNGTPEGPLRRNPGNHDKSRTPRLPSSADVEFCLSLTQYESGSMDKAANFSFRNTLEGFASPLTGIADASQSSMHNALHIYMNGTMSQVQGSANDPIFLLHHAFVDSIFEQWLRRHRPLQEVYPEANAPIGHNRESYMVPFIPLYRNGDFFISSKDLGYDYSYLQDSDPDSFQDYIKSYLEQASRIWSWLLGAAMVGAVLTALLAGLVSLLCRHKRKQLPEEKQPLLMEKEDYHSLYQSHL
Experiment: Inhibition of human tyrosinase after 24 h application to normal human melanocytes in monolayer
Format: cell-based
Conditions: 10^−5M; 24 hours; read-out: Inhibition of human tyrosinase after application to normal human melanocytes, percentage of inhibition, Mean 10^−5M
EXPERIMENTAL_ENDPOINT: inhibition at 10 µM (%)
Hi! Could you send only the number? It should be in %, unit omitted.

COc1cc(/C=C/C(=O)OCCc2ccc(O)cc2)ccc1O [Example 7, 2-(p-hydroxyphenylethyl)trans-ferulate]: 3.48
O=C(O)C=Cc1ccc(O)c(O)c1 [Caffeic acid, 3,4-dihydroxycinnamic acid, reference compound]: 2.34
O=C(CCc1ccc(O)cc1)NCCc1ccc(O)cc1 [Example 16, N-dihydrocoumaroyltyramine]: 40.7
COc1cc(CNC(=O)/C=C/c2ccc(O)c(O)c2)ccc1O: 28

Simply: O=C(/C=C/c1ccc(O)c(O)c1)NCCc1ccc(O)cc1 [Example 9, N-trans-caffeoyltyramine] , Human tyrosinase (Homo sapiens), inhibition at 10 µM = 24.6

Simply: COc1ccc(CCNC(=O)/C=C/c2ccc(O)c(O)c2)cc1OC [Example 12, N-trans-caffeoyl-3,4-dimethoxydopamine] , Human tyrosinase (Homo sapiens), inhibition at 10 µM = 5.63

Simply: COc1cc(/C=C/C(=O)NCCc2ccc(OC)c(OC)c2)ccc1O [Example 2, N-trans-feruloyl-3,4-dimethoxydopamine] , Human tyrosinase (Homo sapiens), inhibition at 10 µM = 18.5

###

Test: in vivo
Conditions: both, rat, po
Procedure: The toxicology tests were performed on the compound obtained according to Example 1 incorporated at 10% into a 0.5% xanthan gel, by ocular evaluation on rabbits, by studying the absence of abnormal toxicity via single oral administration to rats, and by studying the sensitizing power on guinea pigs. […]
EXPERIMENTAL_ENDPOINT: LD50

// recorded LD50 for COc1cc(/C=C/C(=O)NCCc2ccc(O)c(O)c2)ccc1O [Example 1, N-trans-feruloyldopamine] : > 2000 mg/kg

###

Target: Human tyrosinase (Homo sapiens)
Construct: endogenous in cells; host or cells: normal human melanocytes (abdominal surgery; several donors of fair, brown and black phototypes)
Test: Inhibition of human tyrosinase after 24 h application to normal human melanocytes in monolayer
Assay type: cell-based
Settings: Donor S, fair phototype; 10^−5 M; read-out: Inhibition of tyrosinase, Mean 10^−5 M, Donor S
Examples of compounds with documented inhibition at 10 µM follow.
Hi! Could you send only the number? It should be in %, unit omitted.

COc1cc(/C=C/C(=O)NCCc2ccc(O)cc2)ccc1O [Example 3, N-trans-feruloyltyramine]: 33.1
O=C(/C=C/c1ccc(O)c(O)c1)NCCc1ccc(O)c(O)c1 [Example 10, N-trans-caffeoyldopamine]: 0
COc1cc(/C=C/C(=O)NCCc2ccc(O)c(O)c2)ccc1O [Example 1, N-trans-feruloyldopamine]: 29.4

With those in mind, consider the next compound.
// recorded inhibition at 10 µM for O=C(/C=C/c1ccc(O)c(O)c1)NCCc1ccc(O)cc1 [Example 9, N-trans-caffeoyltyramine] : 24.6

###

Biological target: Human tyrosinase (Homo sapiens)
Construct: endogenous in cells; host or cells: normal human melanocytes (abdominal surgery; several donors of fair, brown and black phototypes)
Assay: Inhibition of human tyrosinase after 24 h application to normal human melanocytes in monolayer
Assay type: cell-based
Settings: Donor S, fair phototype; 10^−4 M; read-out: Inhibition of tyrosinase, Mean 10^−4 M, Donor S
Procedure: Normal human melanocytes (obtained from abdominal surgery) are seeded in 24-well plates at a rate of 80 000 cells per well. They are cultured to confluence and the active agents are applied for 24 hours to the culture media. After 24 hours, the media are removed and the melanocytes are detached via mechanical action. An extraction is performed via a thermal shock and the supernatants are then recovered and incubated with MBTH (Sigma) and L-dopa (Sigma). […]
Examples of compounds with documented inhibition at 100 µM follow.
Hi! Could you send only the number? It should be in %, unit omitted.

Simply: COc1cc(/C=C/C(=O)NCCc2ccc(O)cc2)ccc1O [Example 3, N-trans-feruloyltyramine] , Human tyrosinase (Homo sapiens), inhibition at 100 µM = 49.6

Simply: COc1cc(/C=C/C(=O)NCCc2ccc(O)c(O)c2)ccc1O [Example 1, N-trans-feruloyldopamine] , Human tyrosinase (Homo sapiens), inhibition at 100 µM = 62.3

Simply: O=C(/C=C/c1ccc(O)c(O)c1)NCCc1ccc(O)c(O)c1 [Example 10, N-trans-caffeoyldopamine] , Human tyrosinase (Homo sapiens), inhibition at 100 µM = 66.8

Simply: O=C(/C=C/c1ccc(O)c(O)c1)NCCc1ccc(O)cc1 [Example 9, N-trans-caffeoyltyramine] , Human tyrosinase (Homo sapiens), inhibition at 100 µM = 100

Origin of values: patent US9089499B2
